- system-under-test: α4β7 integrin interaction with MadCAM-1 (RPMI8866 cells) (Homo sapiens, UniProt P13612+P26010)
- Construct: α4β7 integrin expressing cells; endogenous in cells
- Sequence (P13612 34-1032): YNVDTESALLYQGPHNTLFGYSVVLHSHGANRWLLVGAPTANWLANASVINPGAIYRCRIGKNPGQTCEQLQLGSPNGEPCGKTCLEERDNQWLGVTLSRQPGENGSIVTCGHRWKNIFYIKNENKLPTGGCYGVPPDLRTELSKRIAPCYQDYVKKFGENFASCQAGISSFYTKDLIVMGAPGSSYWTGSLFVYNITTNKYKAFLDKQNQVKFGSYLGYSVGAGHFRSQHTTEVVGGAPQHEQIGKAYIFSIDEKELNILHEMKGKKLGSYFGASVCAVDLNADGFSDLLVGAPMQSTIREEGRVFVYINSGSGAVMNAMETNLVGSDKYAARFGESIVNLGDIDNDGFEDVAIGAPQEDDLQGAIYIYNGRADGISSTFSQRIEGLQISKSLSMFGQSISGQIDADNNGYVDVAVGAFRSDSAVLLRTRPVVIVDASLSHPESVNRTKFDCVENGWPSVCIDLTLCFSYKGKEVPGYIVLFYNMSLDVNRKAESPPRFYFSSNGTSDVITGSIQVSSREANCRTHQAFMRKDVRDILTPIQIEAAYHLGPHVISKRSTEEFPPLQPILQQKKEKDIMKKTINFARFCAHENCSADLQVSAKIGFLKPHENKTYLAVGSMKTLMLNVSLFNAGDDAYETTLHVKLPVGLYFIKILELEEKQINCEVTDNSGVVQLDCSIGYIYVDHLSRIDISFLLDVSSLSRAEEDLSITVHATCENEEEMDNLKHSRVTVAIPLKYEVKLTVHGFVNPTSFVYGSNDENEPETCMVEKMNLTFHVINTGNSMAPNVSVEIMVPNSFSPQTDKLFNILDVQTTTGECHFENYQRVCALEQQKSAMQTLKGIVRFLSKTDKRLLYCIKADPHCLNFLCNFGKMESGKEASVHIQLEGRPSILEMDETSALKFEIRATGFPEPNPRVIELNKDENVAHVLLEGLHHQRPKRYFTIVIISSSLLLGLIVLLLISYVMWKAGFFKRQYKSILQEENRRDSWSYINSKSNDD
- Sequence (P26010 20-798): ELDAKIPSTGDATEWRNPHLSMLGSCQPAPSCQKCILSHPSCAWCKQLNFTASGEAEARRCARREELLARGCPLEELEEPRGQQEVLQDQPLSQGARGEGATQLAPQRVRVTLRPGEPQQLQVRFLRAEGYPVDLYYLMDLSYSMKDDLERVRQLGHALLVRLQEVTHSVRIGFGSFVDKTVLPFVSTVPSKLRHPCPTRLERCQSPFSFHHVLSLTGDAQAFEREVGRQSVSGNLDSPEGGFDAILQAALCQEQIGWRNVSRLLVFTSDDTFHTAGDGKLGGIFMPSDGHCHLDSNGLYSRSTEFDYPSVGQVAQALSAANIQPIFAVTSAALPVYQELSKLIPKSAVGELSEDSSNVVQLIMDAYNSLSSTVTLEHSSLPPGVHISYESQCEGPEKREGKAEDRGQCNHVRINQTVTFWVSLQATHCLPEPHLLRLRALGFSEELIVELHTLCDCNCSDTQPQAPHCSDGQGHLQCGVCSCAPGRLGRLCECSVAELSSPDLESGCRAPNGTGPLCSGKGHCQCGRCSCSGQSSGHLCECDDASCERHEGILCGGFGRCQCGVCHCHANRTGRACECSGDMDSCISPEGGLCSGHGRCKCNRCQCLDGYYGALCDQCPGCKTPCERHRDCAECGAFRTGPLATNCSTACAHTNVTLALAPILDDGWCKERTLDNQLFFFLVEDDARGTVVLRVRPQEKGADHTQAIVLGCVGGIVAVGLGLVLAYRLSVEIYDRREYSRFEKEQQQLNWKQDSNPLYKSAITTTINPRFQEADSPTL
- assay-notes: α4β7 Integrin Cell Capture Assay
- measurement-setup: capture of α4β7 integrin expressing RPMI8866 cells on recombinant MadCAM-1 extracellular domain-coated plate; 0.5 mM MnCl2
value-kind: pEC50
Just so you know, pEC50 here is -log10 of the concentration in molar units; reply with that number alone.

Quick one: pEC50 for "COc1cc(C)n(C)c(=O)c1-c1ccc(C[C@H](NC(=O)c2c(F)cc(N[C@H](C)C(F)(F)F)cc2F)C(=O)O)c2c1OCCC2" ?
8.91

Using the record for "COCN(C(=O)c1c(F)cc(N2CCOC[C@@H]2C(F)(F)F)cc1F)[C@@H](Cc1ccc(-c2nc(C)c(C)n(C)c2=O)c2c1CCCO2)C(=O)O" , report its pEC50.
7.72

What value of measured pEC50 is listed for "Cc1nc(-c2ccc(C[C@H](NC(=O)c3c(F)cc(N4CCOC[C@@H]4C(F)(F)F)cc3F)C(=O)O)c3c2C[C@@H](O)C3)c(=O)n(C)c1C" ?
9.64

# query: pEC50 of entry "Cc1cc(N2CCOC[C@@H]2C(F)(F)F)cc(F)c1C(=O)N[C@@H](Cc1ccc(-c2cnc(C)n(C)c2=O)c2c1CCCO2)C(=O)O"
9.35

pEC50 lookup needed for "Cn1c2c(nc(-c3ccc(C[C@H](NC(=O)c4c(F)cc(N5CCOC[C@@H]5C(F)(F)F)cc4F)C(=O)O)c4c3OCCC4)c1=O)CCCC2" , thanks.
9.34

Bench note: what pEC50 did "CC[C@@H](Nc1cc(F)c(C(=O)N[C@@H](Cc2ccc(-c3c(C(F)(F)F)cc(C)n(C)c3=O)c3c2CCC3)C(=O)O)c(F)c1)C(F)(F)F" show?
9.20

---

- system-under-test: α4β7 integrin interaction with MadCAM-1 (RPMI8866 cells) (Homo sapiens, UniProt P13612+P26010)
- Construct: α4β7 integrin expressing cells; endogenous in cells
- assay-notes: α4β7 Integrin Cell Capture Assay
- measurement-setup: capture of α4β7 integrin expressing RPMI8866 cells on recombinant MadCAM-1 extracellular domain-coated plate; 0.5 mM MnCl2
Please respond with reported EC50 for every item in the list.
Numeric only. Scale: pM

Could you tell me which EC50 is on file for Cc1cc(-c2ccc(C[C@H](NC(=O)c3c(F)cc(N4CCOC[C@@H]4C(F)(F)F)cc3F)C(=O)O)c3c2OCCC3)c(=O)n(C)n1 [Example 148] ?
760

Need EC50 of CC[C@@H](Nc1cc(F)c(C(=O)N[C@@H](Cc2ccc(-c3nc(C)c(C)n(C)c3=O)c3c2CCCO3)C(=O)O)c(F)c1)C(F)(F)F [Example 49] , thanks.
830

Can you share its EC50? I mean this compound: Cc1cc(C(F)(F)F)c(-c2ccc(C[C@H](NC(=O)c3c(F)cc(N4CCOC[C@@H]4C(F)(F)F)cc3F)C(=O)O)c3c2COC3)c(=O)n1C [Example 19]
193

Form field: reported EC50 of Cc1cc(N2CCCC[C@@H]2C(F)(F)F)cc(F)c1C(=O)N[C@@H](Cc1ccc(-c2nc(C)c(C)n(C)c2=O)c2c1CCCO2)C(=O)O [Example 149]
715

Sample CC[C@@H](Nc1cc(F)c(C(=O)N[C@@H](Cc2ccc(-c3c(C)n(C)c(=O)n(C)c3=O)c3c2CCCO3)C(=O)O)c(F)c1)C(F)(F)F [Example 54] — what was its EC50?
607

What does the data say about its EC50? Entry: Cc1cc(N2CCOC[C@@H]2C(F)(F)F)cc(F)c1C(=O)N[C@@H](Cc1ccc(-n2c(=O)c3ccncc3n(C)c2=O)c2c1OCCO2)C(=O)O [Example 173]
56

Fill in the blank: the reported EC50 of N#Cc1cc(Cl)c(-c2ccc(C[C@H](NC(=O)c3c(F)cc(N[C@H](c4ccccc4)C(F)(F)F)cc3F)C(=O)O)c3c2OCCC3)c(Cl)c1 [Example 87] is ____.
12800

I'd like to know its EC50. The compound in question is CC[C@@H](Nc1cc(F)c(C(=O)N[C@@H](Cc2ccc(-c3c(OC)cc(C)n(C)c3=O)c3c2CCCO3)C(=O)O)c(F)c1)C(F)(F)F [Example 47]
580

Please report the recorded EC50 for Cn1c(=O)c(-c2ccc(C[C@H](NC(=O)c3c(Cl)cccc3Cl)C(=O)O)c3c2OC(C)(C)C3)cc2ccccc21 [Example 38] .
20600

Which EC50 is listed for Cc1ncc(-c2ccc(C[C@H](NC(=O)c3c(F)cc(N4CCOC[C@@H]4C(F)(F)F)cc3F)C(=O)O)c3c2OCCO3)c(=O)n1C [Example 177] ?
593

So what does the record say about EC50 for Cc1c(-c2ccc(C[C@H](NC(=O)c3c(F)cc(N4CCOC[C@@H]4C(F)(F)F)cc3F)C(=O)O)c3c2OCCO3)c(=O)n(C)c(=O)n1C (single isomer, unassigned) [Example 8] ?
301

# EC50 lookup, item Cn1c(=O)c(-c2ccc(C[C@H](NC(=O)c3c(F)cc(N4CCOC[C@@H]4C(F)(F)F)cc3F)C(=O)O)c3c2OCCC3)cc2ccccc21 [Example 32]
1780

I am curious: what EC50 value has been reported for CC1(C)CCc2c(C[C@H](NC(=O)c3c(Cl)cccc3Cl)C(=O)O)ccc(-c3c(Cl)cc(F)cc3Cl)c2O1 [Example 95] ?
625000

Which EC50 value belongs to Cc1nc(-c2ccc(C[C@H](NC(=O)c3c(F)cc(N4C[C@H]5C[C@H]5[C@@H]4C(F)(F)F)cc3F)C(=O)O)c3c2OCCC3)c(=O)n(C)c1C [Example 138] ?
964

What does the data say about its EC50? Entry: COc1ccc(C)nc1-c1ccc(C[C@H](NC(=O)c2c(F)cc(N3CCOC[C@@H]3C(F)(F)F)cc2F)C(=O)O)c2c1OCCC2 [Example 140]
550

Please give the measured EC50 for this compound: Cn1c(=O)n(-c2ccc(C[C@H](NC(=O)c3c(F)cc(N4CCOC[C@@H]4C(F)(F)F)cc3F)C(=O)O)c3c2COC3)c(=O)c2ccncc21 [Example 182]
277

Param item = Cc1nc(-c2ccc(C[C@H](NC(=O)c3c(F)cc(N4CC[C@@H]4C(F)(F)F)cc3F)C(=O)O)c3c2OCCC3)c(=O)n(C)c1C [Example 131] ; retrieve measured EC50.
1560

What does the record list as EC50 for CC[C@@H](Nc1cc(F)c(C(=O)N[C@@H](Cc2ccc(-c3c(C)nc(C)n(C)c3=O)c3c2CCCO3)C(=O)O)c(F)c1F)C(F)(F)F [Example 126] ?
379

If you can, please state the reported EC50 value of O=C(N[C@@H](Cc1ccc(-c2c(Cl)cc(F)cc2Cl)c2c1OCCO2)C(=O)O)c1c(Cl)cccc1Cl [Example 5] .
55400

For the compound shown here, Cc1cc(N2CCOC[C@@H]2C(F)(F)F)cc(F)c1C(=O)N[C@@H](Cc1ccc(-c2c(C)nc(C)n(C)c2=O)c2c1CCCO2)C(=O)O [Example 129] , give the reported EC50.
189

Which measured EC50 value corresponds to Cc1cc(C(F)(F)F)c(-c2ccc(C[C@H](NC(=O)c3c(F)cc(N4CCOC[C@@H]4C(F)(F)F)cc3F)C(=O)O)c3c2OCCC3)c(=O)n1C (single isomer, unassigned) [Example 39] ?
126

Would you kindly share the measured EC50 for O=C(N[C@@H](Cc1ccc(-c2c(Cl)cc(F)cc2Cl)c2c1[C@H]1C[C@H]1CO2)C(=O)O)c1c(Cl)cccc1Cl (single isomer, unassigned) [Example 81] ?
109000

Recorded EC50 for Cc1c(C(F)(F)F)cn(C)c(=O)c1-c1ccc(C[C@H](NC(=O)c2c(F)cc(N3CCOC[C@@H]3C(F)(F)F)cc2F)C(=O)O)c2c1COC2 [Example 29] , please?
817
